tested on: NCI-H522 lung; test: NCI-60 one-dose screen, 48 h; settings: 10 µM unless noted
About 83,000 compounds went through this panel and 20% of them were active in at least one assay; those are over-represented in the sample as a whole. Calls of active or inactive are those of the source. How the source made its calls: active means growth percent below 10; inactive means the rest.
Assign a class; possible classes are YES (active), NO (inactive)

Exercise: Each molecule tested received a call. Report the one for COc1ccc(-c2nnc(/N=C3/C(=O)Nc4ccc(Br)cc43)o2)cc1 .
Key: NO

Exercise: Each molecule tested received a call. Report the one for COc1ccc(/C(C)=C(\c2ccc(Cl)cc2)c2ccc(OCCN)cc2)cc1 .
Key: NO

Exercise: Each molecule tested received a call. Report the one for COc1cc(/C=N/n2cnc3oc(-c4ccccc4)cc3c2=N)cc(CN2CCN(C)CC2)c1O .
Key: NO

Exercise: Each molecule tested received a call. Report the one for CCNC(=O)Oc1ccc(/C(=C(/C)c2ccc(Cl)cc2)c2ccc(OCCN3CCCC3)cc2)cc1 .
Key: NO

Exercise: Each molecule tested received a call. Report the one for C=CCn1c(SCC(=O)Nc2cccc(C(=O)/C=C/c3ccc(C)cc3)c2)nc2ccccc2c1=O .
Key: NO

Exercise: Each molecule tested received a call. Report the one for O=c1oc2ccc(-c3ccc(F)cc3F)cc2c(=O)n1-c1ccc(F)c(F)c1 .
Key: YES

Exercise: Each molecule tested received a call. Report the one for COc1ccc(-c2oc3cc(O)cc(O)c3c(=O)c2OC)cc1O .
Key: YES

Exercise: Each molecule tested received a call. Report the one for CCOC(=O)C1=C(C)N=C2Sc3ccccc3N2C1c1ccccc1 (stereo not given) .
Key: NO

Exercise: Each molecule tested received a call. Report the one for O=[N+]([O-])c1ccc(-c2nnc(SCc3ccc(O)c4ncccc34)o2)cc1 .
Key: NO

Exercise: Each molecule tested received a call. Report the one for COc1ccc2c(ccn2C(=O)N2c3ccccc3Sc3ccccc32)c1 .
Key: YES
